Biological target: Ecm22 (UniProt Q05958)
Sequence: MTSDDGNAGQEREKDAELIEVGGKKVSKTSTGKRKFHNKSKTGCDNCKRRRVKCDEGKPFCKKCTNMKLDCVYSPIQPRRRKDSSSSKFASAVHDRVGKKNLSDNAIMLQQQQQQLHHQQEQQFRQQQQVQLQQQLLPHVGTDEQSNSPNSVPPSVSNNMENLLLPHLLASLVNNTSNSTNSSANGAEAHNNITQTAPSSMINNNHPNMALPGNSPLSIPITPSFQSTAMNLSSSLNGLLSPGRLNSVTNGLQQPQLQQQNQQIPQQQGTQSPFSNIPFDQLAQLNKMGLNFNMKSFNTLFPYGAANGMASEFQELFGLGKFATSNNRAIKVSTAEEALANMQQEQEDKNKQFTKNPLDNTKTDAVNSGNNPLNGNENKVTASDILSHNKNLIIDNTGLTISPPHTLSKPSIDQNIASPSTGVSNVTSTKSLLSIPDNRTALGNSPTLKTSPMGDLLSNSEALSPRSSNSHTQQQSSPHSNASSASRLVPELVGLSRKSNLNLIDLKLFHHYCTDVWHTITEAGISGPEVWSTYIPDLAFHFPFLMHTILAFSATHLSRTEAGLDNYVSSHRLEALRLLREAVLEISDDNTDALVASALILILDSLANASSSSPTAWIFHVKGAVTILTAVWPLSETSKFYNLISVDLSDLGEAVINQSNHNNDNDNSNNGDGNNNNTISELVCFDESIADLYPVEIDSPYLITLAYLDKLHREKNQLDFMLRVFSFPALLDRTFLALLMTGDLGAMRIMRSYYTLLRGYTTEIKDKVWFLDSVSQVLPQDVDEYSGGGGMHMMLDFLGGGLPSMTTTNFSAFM
Experiment: PBM E-score (8-mer binding enrichment) (E-score (-0.5 to 0.5)); higher = stronger / more preferred TF binding
Conditions: protein concentration: 200 nM; construct: GST-full length
The full ranking holds about 33,000 sequences; the median of “E-score (-0.5 to 0.5)” is about -0.041, and the highest 2% start at about 0.37. The list comes from a sample in which the highest values are over-represented; it also holds close analogues and randomly drawn sequences.
Class (required): determined from PBM E-score; valid ranges are lower segment: < -0.006; middle segment: ≥ -0.006 and < 0.3; upper segment: ≥ 0.3

Biosequence | Class
TACGAAAA | upper segment
CTACGGGC | lower segment
TCACGAAA | middle segment
CCACCGGG | lower segment
ATCGAATA | middle segment

For this sequence, which bin applies? TTACGAAA
upper segment

For this sequence, which bin applies? ACACGAAA
middle segment

For this sequence, which bin applies? AGGCCGTA
upper segment

For this sequence, which bin applies? AGGGACAC
lower segment

Values were extracted from the supplement of paper PMC3334620.
